method.description: yeast display, Sf9 membrane polyspecificity reagent, FACS + sequencing; frameworks hold sequencing errors
experimental.endpoint: polyreactivity (PSR sort gate)

1) QVQLVESGGGLVQAGGSLRLSCAASGSTFTYNAMGWYRQAPGKERELVAAITGRGGSTYADSVKGRFTISRDNAKNTVYLQMNSLKPEDTAVYYCAARRPYGYRWHTSVPSLDYWGQGTQVTVSS ... low polyreactivity
2) QVQLVESGGGLVQAGGSLRLSCAASGSTFRGYAMGWYRQAPGKERELVATITSGGSTNYADSVKGRFTISRDNGKNTVYLQMNSLKPEDTAVYYCNARWVPRYWYDYWGQGTQVTVSS ... high polyreactivity
3) QVQLVESGGGLVQAGGSLRLSCAQSGFTKSTYTMGWYRQAPGKESELVAAIRRSGDSTYYGDSVKGRFTISRDHAKNTVYLQMKRLKPEDTAVYYSNAVRYRFERYDYWGQGTQVTVSS ... high polyreactivity
4) QVQLVESGGGLVQAGGSLRLSCAASGSTFPLYAMGWYRQAPGKERELVAAITSGGGNTYYADSVKGRFTISRDNAKNTVYLQMNSLKPEDTAVYYCAAVGGYKSYYSYEYDYWGQGTQVTVSS ... low polyreactivity
5) QVQLVESGGGLVQAGGSLRLSCAASGFIFAFYDIGWYRQAPGKERELVAAISWGGSTYYADSVKGRFTISRDNAKNTVYLQMNSLKPEDTAVYYCAARLSRSYRYGYWGQGTQVTVSS ... high polyreactivity

---

method.description: yeast display, Sf9 membrane polyspecificity reagent, FACS + sequencing; frameworks hold sequencing errors
experimental.endpoint: polyreactivity (PSR sort gate)

1. QVQLVESRGGLVQAGGSLRLSCAASGITSRFYVMGWYRKAPGKERELVAAISTRGTSTYYADSVKGRFTLSRDNAKNTVYLQMNSLKPEDTAVYYCAAVGGYPYQYPYGSWGQGTQVTVSS ... high polyreactivity
2. QVQLVESGGGLVQAGGSLRISCAASGSTFYRNAMGWYRQAPGKEREFVAAISFRGGGTYADSVKGRFTISRDNAKNTVYLQMNSLKPEDTAVYYCAADHLSYRRRYEYWGQGTQVTVSS ... low polyreactivity
3. QVQLVESGGGLVQALGSLRLSCAASGFIFGYNAMGWYRQAPGQERELVAAISSSGGSTYYADSVKGRFTISRDNAKNTVYLQMNSLKPEDTAVYYGAARPVALRKYDYWGLGTQVTVSS ... low polyreactivity
4. QVQLVESGGGSVQAGGSLRLSCAASGIIFWYYTMGWYRQATGKERELVAAISWSSGITYYADSLKGRFTISRDNAKNTVYLQMNSLKPEDTAVYYCSAGYYKGFTLVRVIFDYWGQGTQVTVSS ... low polyreactivity
5. QVQLVESGGGLVQAGGSLRLSCAASGYIFKPNTMGWYRQAPGKERELVAAITRGGRTKYADSVKGRFTISRDNAKNTVYLQMNSLKPEATAVYYCNKVRTVTTYEYWGQGTQVTVSS ... high polyreactivity
6. QVQLVESGGGLVQAGGSLRLSCAASGFTFFRYAMGWYRQAPGKERDLVAAITSGGGRTYYADSVKGRFTISRYNAKNTVYLQMNRLKPEDTAVYYCNAVRRVDMYYWGLGTQVTVSS ... high polyreactivity
7. QVQLVESGGGLVQAGGSLRLSCAASGFIFGYNAMGWYRQAPGKERELVAAINWSGGRTYYADSVKGRFTISRDNPKNTVYLQMNSLKPEDTAVSYCNADGSRRYNYWGQGTQVTVSS ... low polyreactivity
8. QVQLVESGGGLVQAGGSLRLSCAASGRTFRPYAMGWDRQAPGKEREFVAAIRSSGDSTYYADSVKGRFTISRDNAKNTVYLQMNSLKPEDTAVYYCAADVYRYRVRGMNYWGQGTQVTVSS ... high polyreactivity
9. QVQLVESGGGLLQAGGSLRLSCAASGSTFGHYAMGWYRQAPGKERELVAAITWSGGSTYYADSVKGRFTISGDNAKNTVYLQMKSLKPEDTAVYDCAARFGGGAARHGYWGQGTQVTVSS ... high polyreactivity
10. QVQLVESGGGLVQAGGSLRLSCAASGSTFPHYAMGWYRQAPGKERELVAAISWSGSSTYYADSVKGRFTISRDNAKNTVYLQMNSLKPEDTAVYYCNKLPRRAPQFTYDYWGQGTQVTVSS ... high polyreactivity
11. QVQLVESGGGVVQAGGSLRISCAASRLIFRRNAMGWYGQAPGKERELVAAISRTGGSTYDADSVKGRFTISRDNAKNPVYLQRNSLIPEDTAVYYCATDTRDYDYTDEYWGHGTQVTVSS ... low polyreactivity
